# assayed-system: Neu5Ac(a2-8)Neu5Ac(a2-3)Gal(b1-3)GalNAc(b1-4)[Neu5Ac(a2-3)]Gal(b1-4)Glc
# assay-info: glycan array binding signal (z-score within array); higher = stronger binding
# assay-conditions: glycan notation: IUPAC condensed, linker removed
The sample as a whole holds a higher share of the strongest signals than the screen did.
measured-metric: glycan array binding signal (z-score)
Number only, please.

Briefly, glycan array binding signal (z-score) measured for AFL6 (Aspergillus fumigatus), Q4WKJ1 (protein) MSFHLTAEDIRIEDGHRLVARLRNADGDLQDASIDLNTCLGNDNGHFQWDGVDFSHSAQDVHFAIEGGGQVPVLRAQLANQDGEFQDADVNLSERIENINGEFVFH : -0.5
